Test system: IL-4
EXPERIMENTAL PROTOCOL: Cytokine production inhibitory activity, Concanavalin A stimulated mononuclear cells, ELISA: IL-4
Format: cell-based
CONDITION DESCRIPTION: Homo sapiens, IL-4 in culture supernatant, Concanavalin A 5 µg/ml, forty-eight hours
MEASURED QUANTITY: IC50

# input Determine its reported IC50: CC(NC(=O)N1C(=O)C(Cc2ccccc2)C1Oc1ccc(C(=O)N2CCN(C)CC2)cc1)c1ccccc1 (stereo not shown)
# output 11.7 µM

###

TARGET UNDER TEST: human neutrophils elastase (Homo sapiens)
Construct: human neutrophils elastase (0.02 mg/ml in 50 mM Tris-HCl, pH 7.0, 2 mM CaCl2, Athens research and technology)
Sequence (P08246 30-267): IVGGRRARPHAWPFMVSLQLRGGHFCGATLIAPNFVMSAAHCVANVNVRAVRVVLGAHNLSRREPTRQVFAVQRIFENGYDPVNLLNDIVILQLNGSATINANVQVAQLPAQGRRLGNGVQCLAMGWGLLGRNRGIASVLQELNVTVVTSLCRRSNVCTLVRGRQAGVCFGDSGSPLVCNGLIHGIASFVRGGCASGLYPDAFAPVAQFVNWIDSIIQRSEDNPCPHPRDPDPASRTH
EXPERIMENTAL PROTOCOL: Inhibitory activity on other serine proteases: Elastase (sucAAVpNA)
CONDITION DESCRIPTION: elastase
MEASURED QUANTITY: IC50 (µM)
Write the number in µM without appending the unit.

# input Determine its reported IC50: CCOc1ccccc1C[C@@H]1C(=O)N(C(=O)NC(c2ccc(C)cc2)c2ccc(C)cc2)[C@H]1Oc1ccc(C(=O)O)cc1 [Compound I-158]
# output 25
